Data provenance: paper PMC10397247

Task for the reader: assign each of the following binders its reported interaction score.
assayed-target: T1, P1SHb
T1 chain: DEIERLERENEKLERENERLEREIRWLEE
assay-remarks: two-hybrid library CCNG1;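 further: natural log of median RNA to DNA barcode read ratio; higher means stronger binding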

Below are 4 binders. Give each one its interaction score.
1. DENEKLEREIRELEREIEKLEKKNRYLKE [P11SHb]
2. DKNEELKRENEELERKIERLKEKIRYLKE [P10SHb]
3. DKNRELKEKIERLKEKIRELKEENRYLEE [P12SHb]
4. DEIERLERENEKLERENERLEREIRWLEE [P1SHb]

a:
-0.267
-1.44
-1.47
-1.02
